system: RNA synthesis in HL-60 cells; assay: Inhibition of [5-3H]Cyd incorporation into RNA of HL-60 cells; format: cell-based, human; details: Homo sapiens, HL-60, 0.5 h, at 0.03 mg/mL; read-out: % Inhibition of Precursor Incorporation, RNA
Endpoint name: inhibition at 30 µg/mL (%)

1) CC(=O)Oc1cc(OC(C)=O)c2c(=O)c3ccccc3[nH]c2c1 [Compound 5, 1,3-O,O-Diacetyl-acridone]	24.9
2) COc1cc2c(c3[nH]c4ccccc4c(=O)c13)C=CC(C)(C)O2 [Compound 33, des-N-methyl acronycine]	67.3
3) COc1cc(OC(C)=O)c2c(=O)c3cccc(OC(C)=O)c3n(C)c2c1CC=C(C)C [Compound 14, OO-Diacetyl-glycocitrine-I]	63.8
4) COc1cc(O)c2c(=O)c3ccc(OC)c(OC)c3n(C)c2c1	95
5) COc1cc(O)c2c(=O)c3cccc(O)c3n(C)c2c1CC=C(C)C [Compound 13, Glycocitrine-I]	43.9
6) COc1ccc2c(=O)c3c(O)cc(O)cc3n(C)c2c1OC [Compound 19, Grandisine-II]	96
7) O=c1c2ccccc2[nH]c2cc(O)cc(O)c12 [Compound 4, 1,3-Dihydroxy-acridone]	50.6
8) CC(=O)Oc1cc(OC(C)=O)c2c(=O)c3ccccc3n(C)c2c1 [Compound 6]	2.7

====

tested on: RNA synthesis in HL-60 cells; test: Inhibition of [5-3H]Cyd incorporation into RNA of HL-60 cells; format: cell-based, human; conditions: Homo sapiens, HL-60, 0.5 h, at 0.03 mg/mL; read-out: % Inhibition of Precursor Incorporation, RNA
Catalogue of inhibition at 30 µg/mL readings, one per entry.
Endpoint name: inhibition at 30 µg/mL (%)

1) COc1cc(OC)c2c(=O)c3ccccc3n(C)c2c1	65.8
2) COc1c(O)ccc2c(=O)c3c(O)c(CC=C(C)C)c(O)cc3n(C)c12	29.8
3) COc1c(OC)c(OC)c2c(c1O)c(=O)c1ccc(O)c(OC)c1n2C	65.7

====

system: HL-60 cells; assay: HL-60 cell growth inhibition, 72 h; assay type: cell-based, human; conditions: HL-60, 72 h; read-out: Cell Growth Inhibition, IC50
pIC50: −log10 of the molar value.
Catalogue of pIC50 readings, one per entry.
Endpoint name: pIC50

1. COc1c(OC)c(OC)c2c(c1O)c(=O)c1ccc(O)c(OC)c1n2C	5.95
2. COc1cccc2c(=O)c3c(O)cc4c(c3n(C)c12)C=CC(C)(C)O4	4.76

====

Test system: RNA synthesis in HL-60 cells
Assay: Inhibition of [5-3H]Cyd incorporation into RNA of HL-60 cells
Type: cell-based, human
Details: Homo sapiens, HL-60, 0.5 h, at 0.03 mg/mL; read-out: % Inhibition of Precursor Incorporation, RNA
Protocol: For the precursor incorporation studies, each compound (in 0.3% dimethylsulfoxide) was preincubated with HL-60 cells (a human promyelocytic leukemic cell line) 2.2×10^6 /ml, for 15 min prior to the addition of the labeled precursor (obtained from ICN Radiochemicals, Irvine, Calif.) and then incubated for 30 min. […] Incorporation of radioactivity in the absence of a plant compound and in the presence of dimethylsulfoxide was used as a control. […]
Catalogue of inhibition at 30 µg/mL readings, one per entry.
Endpoint name: inhibition at 30 µg/mL (%)

1) Cn1c2c(O)cccc2c(=O)c2c(O)cc3c(c21)CCC(C)(C)O3 [Compound 38, 1,2-Dihydro-11-hydroxy-nor acronycine]	76.6
2) COc1ccc2c(=O)c3c(O)cc(OC)c(CC=C(C)C)c3n(C)c2c1OC	92.5
3) COc1cc(OC)c2c(=O)c3cccc(OC)c3n(C)c2c1OC	57
4) COc1c(O)ccc2c(=O)c3c(O)cc(O)c(CC=C(C)C)c3n(C)c12	21.1
5) COc1c(O)ccc2c(=O)c3c(O)cc4c(c3n(C)c12)CCC(C)(C)O4 [Compound 43, 1,2-dihydrocitracridone-I]	68
6) COc1c2c(c(O)c3c(=O)c4cccc(O)c4n(C)c13)C=CC(C)(C)O2	97.2
7) CC(C)=CCc1c(O)cc(O)c2c(=O)c3ccccc3n(C)c12	97.1
